experimental.target: POS-1 (Caenorhabditis elegans) binding to mex-3 RNA
run.description: inhibitors of POS-1/mex-3 RNA binding, dose response, biochemical, fluorescence polarization, up to 135 µM (AID 2738)
particulars: POS-1-MBP / FITC mex-3 RNA
Calls of active or inactive are those of the source.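 Rule for the calls: active = IC50 at or below ten times the top tested concentration; inconclusive = flat fit at 30 to 70% inhibition, or invalid poor fit; inactive = IC50 beyond ten times the top tested dose.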
Outcomes: active, inactive

INSERT INTO assay_data (compound, class_name) VALUES
  ('CCN(CC)c1ccc(/C=C2\C(=O)NC(=S)N(C)C2=O)o1', 'inactive'),
  ('N=c1c(C(=O)NC2CCCCC2)cc2c(=O)n3ccccc3nc2n1Cc1cccnc1', 'inactive'),
  ('COc1ccc(-c2cn[nH]c2-c2ccc(OCC(=O)NN)cc2O)cc1OC', 'inactive'),
  ('CCN(CC)c1ccc(/C=C2\C(=O)NC(=S)N(c3ccc(OC)cc3OC)C2=O)o1', 'inactive'),
  ('CCCCN(C)C(=O)CCC(=O)NNc1nc2ccccc2c2nc(C)nn12', 'active'),
  ('Cc1ccc(N2C(=O)NC(=O)/C(=C\c3cc(C)n(-c4ccc(C(=O)O)cc4)c3C)C2=O)cc1', 'inactive'),
  ('NC(CO)C(=O)NNCc1ccc(O)c(O)c1O (stereo not given)', 'inactive'),
  ('Cn1ncc2c(NNC(=O)Cc3ccccc3)ncnc21', 'active'),
  ('O=C(NNC(=O)c1ccccc1[N+](=O)[O-])c1csc(N2CCOCC2)n1', 'active'),
  ('Cc1ncc(CO)c(/C=N/NC(=O)c2cc(Br)ccc2O)c1O', 'active'),
  ('O=c1c(O)cccc2cc(O)c(O)c(O)c12', 'active'),
  ('CCN(CC)CCCNC(=O)CCC(=O)NNc1nc2ccccc2c2nc(C)nn12', 'active'),
  ('Cc1nc2ccccc2c(=O)n1/N=C/c1ccc(O)c(O)c1O', 'active'),
  ('COCCCNC(=O)CCC(=O)NNc1nc2ccccc2c2nc(C)nn12', 'active'),
  ('Oc1ccc(CCNc2c3ccccc3nc3ccccc23)cc1O', 'inactive'),
  ('ON=C1/C(=N\O)CC2(C/C1=N/O)OCCO2', 'inactive'),
  ('CC1=C(C(=O)OCc2ccccc2)C(c2ccccc2[N+](=O)[O-])NC(=O)N1C (stereo not given)', 'active'),
  ('CCOC(=O)c1cc(CC)sc1/N=C/c1c(O)[nH]c(=S)[nH]c1=O', 'active'),
  ('CCc1ccccc1N1C(=O)/C(=C\c2ccc(N3CCN(C)CC3)o2)C(=O)NC1=S', 'inactive'),
  ('O=CN/N=C/c1c(O)ccc2ccccc12', 'active');
